Data provenance is patent US20230295086A1.

Test: Kinetic solubility assay (Example 11)
Details: pH 7.4, aqueous buffer, kinetic from dmso stock
METRIC_NAME: solubility at 24 h

Q: Any idea what solubility at 24 h was measured for NC(=O)N1c2ccccc2C=Cc2ccccc21 [Carbamazepine] ?
Ans: > 180 µM

----------
Biological target: serotonin 2A (5-HT2A) receptor (Mus musculus, UniProt P35363)
Construct: tissue Charles River UK; host or cells: whole living male C57BL/6J mice (in vivo, oral gavage)
Sequence (P35363 whole entry): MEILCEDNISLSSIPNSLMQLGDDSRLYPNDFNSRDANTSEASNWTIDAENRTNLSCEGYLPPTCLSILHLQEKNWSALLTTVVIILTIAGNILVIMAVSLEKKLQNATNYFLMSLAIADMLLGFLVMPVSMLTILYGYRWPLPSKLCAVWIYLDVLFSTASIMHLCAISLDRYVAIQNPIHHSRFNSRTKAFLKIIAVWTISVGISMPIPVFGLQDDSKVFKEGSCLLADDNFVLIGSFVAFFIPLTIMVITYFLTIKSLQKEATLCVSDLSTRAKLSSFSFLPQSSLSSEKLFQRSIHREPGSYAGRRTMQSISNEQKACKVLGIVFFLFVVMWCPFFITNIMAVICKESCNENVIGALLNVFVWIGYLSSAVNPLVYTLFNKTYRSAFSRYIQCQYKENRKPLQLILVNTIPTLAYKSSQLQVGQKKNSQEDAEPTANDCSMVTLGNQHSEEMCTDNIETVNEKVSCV
Assay: Head twitch response (HTR) in mice
Assay type: in vivo, male C57BL/6J mice
Conditions: oral gavage 0.3 mg/kg, N = 8
METRIC_NAME: Mean number of head twitches 30-45 mins
The reply should be a number, written without any unit.

Q: Any idea what Mean number of head twitches 30-45 mins was measured for CCOC(=O)Oc1cccc2[nH]cc(CCN(C)C)c12 [Psilocin-4-yl-ethylcarbonate, psilocin-4-yl ethyl carbonate] ?
Ans: 3.38

Q: Any idea what Mean number of head twitches 30-45 mins was measured for CCOC(=O)Oc1cccc2[nH]cc(CCN(C)CC)c12 ?
Ans: 2.38

Q: Any idea what Mean number of head twitches 30-45 mins was measured for CN(C)CCc1c[nH]c2cccc(OC(=O)OC(C)(C)C)c12 [Psilocin-4-yl-tert-butylcarbonate, psilocin-4-yl tert-butyl carbonate] ?
Ans: 1.5

Q: Any idea what Mean number of head twitches 30-45 mins was measured for CN(C)CCc1c[nH]c2cccc(OC(=O)OCc3ccccc3)c12 [Psilocin-4-yl-benzylcarbonate, psilocin-4-yl benzyl carbonate] ?
Ans: 1.88
